The reported measurements were obtained from PubChem BioAssay (NCI).

tested on: RPMI-8226 leukemia; assay: NCI tumour cell line growth inhibition, 48 h
value_type: TGI

Incoming: So what's the measured TGI for this one? "Cc1ccc(C(=O)Nc2ccc(CP(=O)(O)O)cc2)cc1NC(=O)c1cccc(NC(=O)Nc2cccc(C(=O)Nc3cc(C(=O)Nc4ccc(CP(=O)(O)O)cc4)ccc3C)c2)c1"
Outgoing: > 100 µM

Incoming: So what's the measured TGI for this one? "Cc1cccc(N(CCC#N)S(=O)(=O)c2ccccc2)c1"
Outgoing: > 100 µM

Incoming: So what's the measured TGI for this one? "CN(C)c1ccc2c(c1)oc(=O)c1ccccc12"
Outgoing: 28.8 µM

Incoming: So what's the measured TGI for this one? "C[C@]12CC/C(=N\O)C=C1CC[C@@H]1[C@@H]2CC[C@]2(C)C(=N/O)/C(=C/c3cccnc3)C[C@@H]12"
Outgoing: 8.95 µM

Incoming: So what's the measured TGI for this one? "O=C(O)CNC(=O)c1ccc([As](=O)(O)O)cc1"
Outgoing: > 100 µM

---
Incoming: So what's the measured TGI for this one? COc1cc2c(cc1OC)C1C=NC(C(=O)O)(C2)c2ccccc21 (configuration not stated)
Outgoing: > 100 µM

Incoming: So what's the measured TGI for this one? "O=C(O)/C=C/C(=O)Nc1ncn[nH]1"
Outgoing: > 100 µM

Incoming: So what's the measured TGI for this one? "COc1cc2c(c(OC)c1OC)-c1ccc(NCc3ccccc3)c(=O)cc1[C@@H](NC(C)=O)CC2"
Outgoing: 16.3 µM

###

test system: HS 578T breast; assay: NCI tumour cell line growth inhibition, 48 h; in the data active = GI50 below about 0.43 µM; inactive = the rest
Where a SMILES comes first, the peptide text is derived from it. [ ]: non-standard residue; d: D form. The star is where a group is joined. Bn2Val = CC(C)[C@@H](C(=O)*)N(Cc1ccccc1)Cc1ccccc1; NH(3,4-diMeO-benzyl) = COc1ccc(CN*)cc1OC; NMeV = CN[C@H](C(=O)O)C(C)C; dNMeA = CN[C@H](C)C(=O)O
Outcomes you can answer with include only these: y = active, n = inactive

Incoming: Check the results log: what was the call for OC(c1cccc(C(F)(F)F)c1)c1cnccc1NC1CCCCCC1 (centres undefined) ?
Outgoing: n

Incoming: Check the results log: what was the call for COc1ccc(CNC(=O)[C@@H](C)N(C)C(=O)[C@@H]2CCCN2C(=O)[C@H](C(C)C)N(C)C(=O)[C@@H](NC(=O)[C@H](C(C)C)N(Cc2ccccc2)Cc2ccccc2)C(C)C)cc1OC (Bn2Val-V[NMeV]P[dNMeA]-{NH(3,4-diMeO-benzyl)}) ?
Outgoing: n

Incoming: Check the results log: what was the call for "O=C1CSC(N2CCN(c3cccc(Cl)c3)CC2)=N1" ?
Outgoing: n

Incoming: Check the results log: what was the call for COc1ccc(CN2CCCC(C(=O)c3ccc(C(F)(F)F)cc3)C2)c(O)c1 (centres undefined) ?
Outgoing: n

Incoming: Check the results log: what was the call for "N#Cc1c(O)c2c(c(O)c1C#N)C(=O)c1ccccc1C2=O" ?
Outgoing: n

Incoming: Check the results log: what was the call for "CN=C1NC(=O)/C(=C/c2ccc3ncccc3c2)S1" ?
Outgoing: n

Incoming: Check the results log: what was the call for "COc1ccc(CNC(=O)COc2ccc(/C=N/Nc3nc4ccccc4s3)cc2)cc1" ?
Outgoing: n

Incoming: Check the results log: what was the call for "COc1nc2c(cc1S(=O)(=O)c1ccccc1)CCc1c-2cnn1-c1ccccc1Cl" ?
Outgoing: n

---
Incoming: Check the results log: what was the call for "Fc1ccc(-c2nn(-c3ccccc3)cc2-c2nc3ccccc3o2)cc1" ?
Outgoing: n

Incoming: Check the results log: what was the call for "CN1CCN(Cc2ccc(NC(=O)c3cncc(C#Cc4cnc(N)c5ccccc45)c3)cc2C(F)(F)F)CC1" ?
Outgoing: y

Incoming: Check the results log: what was the call for "Clc1cccc(NC=Nc2ccc(-c3nc4ccccc4s3)cc2)c1" ?
Outgoing: n

Incoming: Check the results log: what was the call for "COc1ccccc1NC(=O)c1ccc(/C=C/C(=O)c2nccn2C)cc1" ?
Outgoing: n

Incoming: Check the results log: what was the call for "COC(=O)c1c2c(c(C)[n+]([O-])c1C)C(=O)C=CC2=O" ?
Outgoing: n

Incoming: Check the results log: what was the call for "NNC(=O)c1cnn(-c2ccnc3c(C(F)(F)F)cccc23)c1N" ?
Outgoing: n
